B1: DCTD (parent)
chain: VKGCSMYVALFPCNECAKLIIQAG

Variants of: B1
protocolDescription: protein stability index of a GFP-peptide fusion (GPS, HEK-293T) (PSI 1-6); higher = more stable;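 further: lentivirally expressed fusions sorted by FACS into six bins by GFP to DsRed ratio, PSI derived from sequencing read proportions per bin multiplied by bin number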
condition: c terminus: a fixed tail appended
Measured protein stability index values are reported for all entries that follow.
Lab note: write the figure by itself, no unit.

sequenceString: VKGCSMYVALFPCKECAKLIIQAG [N14K]
protein stability index: 1.92

sequenceString: VKGCSMHVALFPCNECAKLIIQAG [Y7H]
protein stability index: 1.78

sequenceString: VKGCSMYFALFPCNECAKLIIQAG [V8F]
protein stability index: 3.62

sequenceString: VKGCSMYVALFNCNECAKLIIQAG [P12N]
protein stability index: 3.57

sequenceString: FKGCSMYVALFPCNECAKLIIQAG [V1F]
protein stability index: 3.94

sequenceString: VKGCSMYVALFPCNECAKLIDQAG [I21D]
protein stability index: 3.77

Q. Query: protein stability index; subject: VKQCSMYVALFPCNECAKLIIQAG [G3Q]
A. 3.85

Q. Query: protein stability index; subject: VKGCSMYVALFPCNECAKFIIQAG [L19F]
A. 3.88
